assay: Cmax in C57BL/6 mouse at 2 mg/kg, po by LC/MS/MS method; format: ADME, organism-based; parameters: dose 2 mg/kg, route oral; settings: in vivo
assay-metric: Cmax (ng/mL)

CCS(=O)(=O)c1ccc(CC(=O)Nc2ccc(-c3ccccc3C(F)(F)F)c(Cl)c2)cc1    211
CCS(=O)(=O)c1ccc(CC(=O)Nc2ccc(-c3ccccc3OC(F)(F)F)c(Cl)c2)cc1    203
CS(=O)(=O)c1ccc(CC(=O)Nc2cc(Cl)c(-c3ccccc3OC(F)(F)F)c(Cl)c2)cc1    214

###

biological target: Nuclear receptor ROR-gamma (Homo sapiens); assay: Inhibition of RORgammat (unknown origin) assessed as inhibition of agonist-induced response by FRET assay
Sequence (P51449 whole entry): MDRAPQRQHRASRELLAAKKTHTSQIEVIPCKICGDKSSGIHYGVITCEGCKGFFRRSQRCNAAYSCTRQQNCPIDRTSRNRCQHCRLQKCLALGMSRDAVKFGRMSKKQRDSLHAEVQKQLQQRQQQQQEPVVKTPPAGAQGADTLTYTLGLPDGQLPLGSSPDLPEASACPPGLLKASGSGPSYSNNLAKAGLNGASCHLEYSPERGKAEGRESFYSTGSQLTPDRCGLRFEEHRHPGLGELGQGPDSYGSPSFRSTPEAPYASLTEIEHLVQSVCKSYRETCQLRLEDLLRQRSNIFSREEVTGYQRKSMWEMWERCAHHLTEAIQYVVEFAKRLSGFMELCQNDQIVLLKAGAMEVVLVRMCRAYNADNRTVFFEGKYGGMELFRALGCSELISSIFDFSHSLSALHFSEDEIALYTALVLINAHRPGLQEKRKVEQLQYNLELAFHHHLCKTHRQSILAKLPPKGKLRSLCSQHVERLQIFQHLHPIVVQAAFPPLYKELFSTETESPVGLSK
pIC50: −log10 of the molar value.
assay-metric: pIC50

Please review the following examples before continuing.
CCS(=O)(=O)c1ccc(CC(=O)Nc2cccc(-c3cc(Cl)ccc3Cl)n2)cc1    < 4.60
CCS(=O)(=O)c1ccc(CC(=O)Nc2nnc(-c3cc(Cl)ccc3Cl)s2)cc1    < 4.60

We next turn to a different compound, shown below.
Need pIC50 of "CCS(=O)(=O)c1ccc(CC(=O)Nc2ncc(-c3cc(Cl)ccc3Cl)s2)cc1" , thanks. < 4.60

###

assay: AUC (0 to 4 hrs) in C57BL/6 mouse blood at 2 mg/kg, ip by LC/MS/MS method; format: ADME, organism-based; design: time < 4 hr, dose 2 mg/kg, route intraperitoneal
assay-metric: AUC(0-t) at 4 h (ng·h/mL)

Please review the following examples before continuing.
CCS(=O)(=O)c1ccc(CC(=O)Nc2cc(Cl)c(-c3ccccc3C#N)c(Cl)c2)cc1    1930
CCS(=O)(=O)c1ccc(CC(=O)Nc2cc(Cl)c(-c3ccccc3OC(F)F)c(Cl)c2)cc1    1180
CS(=O)(=O)c1ccc(CC(=O)Nc2cc(Cl)c(-c3ccccc3OC(F)(F)F)c(Cl)c2)cc1    835

(A) NS(=O)(=O)c1ccc(CC(=O)Nc2cc(Cl)c(-c3ccccc3OC(F)(F)F)c(Cl)c2)cc1
(B) CS(=O)(=O)c1ccc(CC(=O)Nc2ccc(-c3ccc(Cl)cc3OC(F)(F)F)c(Cl)c2)cc1
# query: argmin of AUC(0-t) at 4 h over A and B Select an item and report its label. B
(B: 1730 ng·h/mL, A: 4880 ng·h/mL)

(a) CCS(=O)(=O)c1ccc(CC(=O)Nc2cc(Cl)c(-c3ccccc3OC(F)(F)F)c(Cl)c2)cc1
(b) Cc1cc(NC(=O)Cc2ccc(S(C)(=O)=O)cc2)ccc1-c1ccc(Cl)cc1OC(F)(F)F
Task for the reader: decide whether a or b has the larger AUC(0-t) at 4 h. Select an item and report its label. b

(I) CCS(=O)(=O)c1ccc(CC(=O)Nc2ccc(-c3ccc(Cl)cc3OC(F)(F)F)c(Cl)c2)cc1
(II) CCS(=O)(=O)c1ccc(CC(=O)Nc2cc(Cl)c(-c3ccc(F)cc3C#N)c(Cl)c2)cc1
Task for the reader: decide whether I or II has the larger AUC(0-t) at 4 h. Select an item and report its label. II

###

assay: AUC (0 to 4 hrs) in C57BL/6 mouse brain at 2 mg/kg, ip by LC/MS/MS method; type: ADME, organism-based; design: time < 4 hr, dose 2 mg/kg, route intraperitoneal
assay-metric: AUC(0-t) at 4 h (ng·h/mL)

CCS(=O)(=O)c1ccc(CC(=O)Nc2cc(Cl)c(-c3ccc(F)cc3C#N)c(Cl)c2)cc1    76
CCS(=O)(=O)c1ccc(CC(=O)Nc2cc(Cl)c(-c3ccccc3OC(F)(F)F)c(Cl)c2)cc1    946
CS(=O)(=O)c1ccc(CC(=O)Nc2ccc(-c3ccc(Cl)cc3OC(F)(F)F)c(F)c2)cc1    2350
CCS(=O)(=O)c1ccc(CC(=O)Nc2ccc(-c3ccc(Cl)cc3OC(F)(F)F)c(Cl)c2)cc1    1760
NS(=O)(=O)c1ccc(CC(=O)Nc2cc(Cl)c(-c3ccccc3OC(F)(F)F)c(Cl)c2)cc1    388
CS(=O)(=O)c1ccc(CC(=O)Nc2cc(Cl)c(-c3ccccc3OC(F)(F)F)c(Cl)c2)cc1    658

(a) CCS(=O)(=O)c1ccc(CC(=O)Nc2cc(Cl)c(-c3ccccc3OC(F)F)c(Cl)c2)cc1
(b) CS(=O)(=O)c1ccc(CC(=O)Nc2ccc(-c3ccc(Cl)cc3OC(F)(F)F)c(Cl)c2)cc1
(c) CCS(=O)(=O)c1ccc(CC(=O)Nc2cc(Cl)c(-c3ccccc3C#N)c(Cl)c2)cc1
(d) Cc1cc(NC(=O)Cc2ccc(S(C)(=O)=O)cc2)ccc1-c1ccc(Cl)cc1OC(F)(F)F
Write the entries in order, lowest recorded AUC(0-t) at 4 h first. A ranking is expressed here by listing the labels in the requested order. c, a, b, d
(c: 200 ng·h/mL, a: 462 ng·h/mL, b: 1700 ng·h/mL, d: 3520 ng·h/mL)

###

test: Half life in C57BL/6 mouse at 1 mg/kg, ip by LC/MS/MS method; assay type: ADME, organism-based; details: in vivo
assay-metric: half-life (h)

CS(=O)(=O)c1ccc(CC(=O)Nc2cc(Cl)c(-c3ccccc3OC(F)(F)F)c(Cl)c2)cc1    9.7

(1) CCS(=O)(=O)c1ccc(CC(=O)Nc2ccc(-c3ccccc3OC(F)(F)F)c(Cl)c2)cc1
(2) CCS(=O)(=O)c1ccc(CC(=O)Nc2ccc(-c3ccccc3C(F)(F)F)c(Cl)c2)cc1
Task for the reader: decide whether 1 or 2 has the larger half-life. Select an item and report its label. 1

###

test: Ratio of AUC (0 to 4 hrs) in brain to blood of C57BL/6 mouse at 2 mg/kg, ip by LC/MS/MS method; format: ADME, organism-based
assay-metric: Kp
Just the number, please.

Need Kp of "CCS(=O)(=O)c1ccc(CC(=O)Nc2nc(-c3cc(Cl)ccc3Cl)cs2)cc1" , thanks. 1.5

###

assay: Oral bioavailability in C57BL/6 mouse at 2 mg/kg by LC/MS/MS method; format: ADME, organism-based; settings: in vivo
assay-metric: bioavailability (%)

CS(=O)(=O)c1ccc(CC(=O)Nc2cc(Cl)c(-c3ccccc3OC(F)(F)F)c(Cl)c2)cc1    100
CCS(=O)(=O)c1ccc(CC(=O)Nc2ccc(-c3ccccc3OC(F)(F)F)c(Cl)c2)cc1    102
CCS(=O)(=O)c1ccc(CC(=O)Nc2ccc(-c3ccccc3C(F)(F)F)c(Cl)c2)cc1    75

###

assay: Blood clearance in C57BL/6 mouse at 1 mg/kg, ip by LC/MS/MS method; type: ADME, organism-based
assay-metric: CL/F (mL/min/kg)

(P) CCS(=O)(=O)c1ccc(CC(=O)Nc2ccc(-c3ccccc3C(F)(F)F)c(Cl)c2)cc1
(Q) CCS(=O)(=O)c1ccc(CC(=O)Nc2ccc(-c3ccccc3OC(F)(F)F)c(Cl)c2)cc1
# query: argmin of CL/F over P and Q Select an item and report its label. Q
(Q: 11.6 mL/min/kg, P: 17.6 mL/min/kg)
